Tested on: Saccharomyces cerevisiae
Experiment: protein stability index of tFT-peptide fusion (C-terminal peptide) (PSI (0-1 scale)); higher = more stable (slower turnover)
Details: genetic background: wild type; temperature: 30 C
observed.property: protein stability index

The examples below pair each entry with its known result.
Query: Give Saccharomyces cerevisiae protein stability index for SLFALPLPPPAQ
Response: 0.695

Query: Can you look up protein stability index on Saccharomyces cerevisiae for LYVARVGQCVRD ?
Response: 0.686

Query: For the record ENCPPETLNRGE , what value of protein stability index is listed for Saccharomyces cerevisiae?
Response: 0.686

Query: Provide the documented protein stability index with Saccharomyces cerevisiae as the system for AGVGMGAVAGGS
Response: 0.705

Query: Field: protein stability index (Saccharomyces cerevisiae). Entry: GWLSVLVYFLSG
Response: 0.408

Further cases:
Query: Observed protein stability index on Saccharomyces cerevisiae for LPPLPPLAHHPA , please.
Response: 0.699

Query: Look up protein stability index with Saccharomyces cerevisiae for this sequence: VLILDVSFPRCD
Response: 0.766

Query: Record WLGWIVNNSNTE : what is its protein stability index with Saccharomyces cerevisiae?
Response: 0.753

Query: Record PPPPVPRPRLPI : what is its protein stability index with Saccharomyces cerevisiae?
Response: 0.648

Query: Notebook entry, Saccharomyces cerevisiae assay: protein stability index of RWRDGVAWVVVC = ?
Response: 0.143

Query: Item RKKGRKKKQDKN with Saccharomyces cerevisiae - protein stability index?
Response: 0.689

Query: Please tell me: protein stability index of PDPGPPYPTPTA , system Saccharomyces cerevisiae?
Response: 0.708

Query: # value lookup — system Saccharomyces cerevisiae, readout protein stability index, item SLCTSVPEPPFS
Response: 0.687

Query: protein stability index of GGRRVVKSWVLG on Saccharomyces cerevisiae?
Response: 0.66

Query: Entry PPTPPPPSLTPP , system Saccharomyces cerevisiae: what protein stability index was measured?
Response: 0.746

Query: # query: protein stability index | item FELVWLCIIGAL | system: Saccharomyces cerevisiae
Response: 0.173

Query: Requested read-out protein stability index, target or system Saccharomyces cerevisiae, entry CFWTSFVWPGCA
Response: 0.684

Query: Please tell me: protein stability index of LLPLGSLSLSPP , system Saccharomyces cerevisiae?
Response: 0.726

###

Listed here are sequences together with their documented protein stability index.
Test system: Saccharomyces cerevisiae
Assay: protein stability index of tFT-peptide fusion (C-terminal peptide) (PSI (0-1 scale)); higher = more stable (slower turnover)
Conditions: genetic background: wild type; temperature: 30 C
Note: the reply should be a number with no unit written.

Previously resolved entries follow.
Query: // query protein stability index value for entry WILPASFCVVFL
Response: 0.397

Query: # get_value(readout='protein stability index', item= LHFHIYLIISPF )
Response: 0.186

Continuing:
Query: I would be grateful if you could share the reported protein stability index for FLSRHFLFLSFV .
Response: 0.308

Query: What value of protein stability index has been recorded for this entry: EWVGIFRGVSVF
Response: 0.267

Query: What value of protein stability index has been recorded for this entry: FFFLILFPLSYS
Response: 0.372

###

protein stability index values by entry
Tested on: Saccharomyces cerevisiae
Test: protein stability index of tFT-peptide fusion (C-terminal peptide) (PSI (0-1 scale)); higher = more stable (slower turnover)
Conditions: genetic background: das1 deletion; temperature: 30 C
Reply briefly: the number, and no unit.

Example cases with answers are listed next.
Query: What does the record list as protein stability index for KMQGKYIKKKAM [YNR001W-A C-terminal 12 aa] ?
Response: 0.714

Query: Which protein stability index is reported for this sequence? AVDYILRLFGFL [COQ2 C-terminal 12 aa]
Response: 0.72

Query: Please look up its protein stability index: SRDYEETEYSVI [SPP381 C-terminal 12 aa]
Response: 0.709

Query: Would you kindly share the measured protein stability index for SSSSTSSSATKN [TPS1 C-terminal 12 aa] ?
Response: 0.703

Query: State the recorded protein stability index for this entry: TSGFCSLETSAE [YER023C-A C-terminal 12 aa]
Response: 0.697

Query: Entry STFSKPFSTISK [VHR2 C-terminal 12 aa] has what protein stability index?
Response: 0.691

Query: Name the recorded protein stability index for SSANIDINSIAK [SPO22 C-terminal 12 aa] .
Response: 0.7

Query: Fill in the blank: the reported protein stability index of LKKIATKFWGKH [TRK2 C-terminal 12 aa] is ____.
Response: 0.697

Query: What value of protein stability index has been reported for the following sequence? ELLYLIIAGLHI [FYV5 C-terminal 12 aa]
Response: 0.696

Query: // lookup protein stability index for QEIQKKPSQQVS [BIG1 C-terminal 12 aa]
Response: 0.698

Further cases:
Query: // lookup protein stability index for HAQKRVSNASAR [SKI6 C-terminal 12 aa]
Response: 0.698

Query: Looking for the measured protein stability index of KIKKIVLKRSFD [NMD2 C-terminal 12 aa] , can you help?
Response: 0.702

Query: Could you tell me which protein stability index is on file for DGKVIYELEDKE [GET3 C-terminal 12 aa] ?
Response: 0.727

Query: Query (sequence): GIVPGDCLQEYD [FUS1 C-terminal 12 aa] ; field requested: protein stability index
Response: 0.702

Query: So what does the record say about protein stability index for ERDGYYYLKRSS [VHT1 C-terminal 12 aa] ?
Response: 0.715

Query: Which protein stability index value belongs to VRQMNRLATPLI [PUS2 C-terminal 12 aa] ?
Response: 0.709

###

Item-by-item account of protein stability index
System: Saccharomyces cerevisiae
Test: protein stability index of tFT-peptide fusion (C-terminal peptide) (PSI (0-1 scale)); higher = more stable (slower turnover)
Conditions: genetic background: wild type; temperature: 30 C
Would you mind answering with just the numeric figure?

Record excerpt, results attached:
Query: Name the reported protein stability index value associated with the sequence GLVVMFVIAGGG
Response: 0.299

Query: Given QGILVGCCYVLC , state its recorded protein stability index.
Response: 0.3

***
Query: Reported protein stability index, sequence VFLCFSWHFFLF : ____
Response: 0.304

Query: Which value of protein stability index has been reported for VFIPFGFCLCFV in the records?
Response: 0.295

###

Test system: Saccharomyces cerevisiae
Assay: protein stability index of tFT-peptide fusion (C-terminal peptide) (PSI (0-1 scale)); higher = more stable (slower turnover)
Settings: genetic background: das1 deletion; temperature: 30 C
observed.property: protein stability index
When you answer, write just the number.

Query: Query protein stability index on Saccharomyces cerevisiae for RDRHFKIQTCIM
Response: 0.648

Others:
Query: Provide the documented protein stability index with Saccharomyces cerevisiae as the system for GVSFLFVGVSLV
Response: 0.34

Query: Item AWLWCVCWSIMR with Saccharomyces cerevisiae - protein stability index?
Response: 0.317

###

Tested on: Saccharomyces cerevisiae
Experiment: protein stability index of tFT-peptide fusion (C-terminal peptide) (PSI (0-1 scale)); higher = more stable (slower turnover)
Conditions: genetic background: wild type; temperature: 30 C
protein stability index values by entry
Respond numerically, and do not add a unit to the figure.

Consider the following illustrative entries.
Query: Suppose we examine the sequence KFLQRTPGHSSE ; what protein stability index value has been reported?
Response: 0.699

Query: Recorded protein stability index of LPRTPPPLAHGP , please.
Response: 0.688

Query: Which protein stability index value is on record for SGTVRRQCGNPD ?
Response: 0.698

New cases:
Query: Param item = FLPLPRPRLLLP ; retrieve measured protein stability index.
Response: 0.617

Query: I'd like to know its protein stability index. The sequence in question is YGLSVSSLRLWP
Response: 0.685

###

The entries below come with measured protein stability index values attached.
System: Saccharomyces cerevisiae
Test: protein stability index of tFT-peptide fusion (C-terminal peptide) (PSI (0-1 scale)); higher = more stable (slower turnover)
Conditions: genetic background: cdc53-1; temperature: 37 C
Give only the figure.

Known results for sequences:
Query: Which measured protein stability index value corresponds to AYFPSQRVHHLM ?
Response: 0.706

Query: Can you look up the measured protein stability index of IWIRLGSENTVI for me?
Response: 0.722

Query: What measured protein stability index goes with LSYRFVFRFLLF ?
Response: 0.592

Query: Sample VYGSLPVVVCRI — what was its protein stability index?
Response: 0.538

Next:
Query: Name the recorded protein stability index for SRCLALVICYRV .
Response: 0.582

Query: Endpoint output: protein stability index of LVGVLLAVWSVV . Value?
Response: 0.294

Query: Looking for the measured protein stability index of TYCFRVCAWRAN , can you help?
Response: 0.706

Query: protein stability index; subject: VVTLHISLFYPG
Response: 0.511

Query: Param item = VFLCFSWHFFLF ; retrieve measured protein stability index.
Response: 0.591

Query: Value lookup for protein stability index; key = LFHPPSFSLRLF
Response: 0.738

Query: Value lookup for protein stability index; key = GGGWAVLLWVQV
Response: 0.457

Query: So what's the measured protein stability index for this one? FVGVVCILWLVG
Response: 0.33
